Listing of recorded IC50 by entry.
Target: Human autotaxin enzyme (Homo sapiens, UniProt Q13822)
Construct: purchased R&D System
Experiment: Evaluation of autotaxin inhibitor, Method C (Test Example 3): 18:0 Lyso PC, choline assay, Resorufin fluorescence
Type: biochemical
Conditions: Assay Method C (Test Example 3), human autotaxin, 18:0 Lyso PC substrate; read-out: Inhibitory Activity (autotaxin enzyme inhibitory activity, IC50 class)

[
  {
    "compound": "CCCCCn1c(N2CCC[C@H]2C(=O)N[C@@H](Cc2cccc3ccccc23)C(=O)O)cc(=O)n2cc(-c3ccc(Cl)cc3)nc12 [Compound 724]",
    "target entity": "Human autotaxin enzyme (Homo sapiens, UniProt Q13822)",
    "IC50": "< 10 nM"
  },
  {
    "compound": "CCCCCn1c(N2CCC[C@H]2C(=O)NCC(=O)C(C)(C)C)cc(=O)n2cc(-c3ccc(Cl)cc3)nc12 [Compound 706]",
    "target entity": "Human autotaxin enzyme (Homo sapiens, UniProt Q13822)",
    "IC50": "10 to 100 nM"
  },
  {
    "compound": "CCCCCn1c(N2CCC[C@H]2C(=O)NCCC(=O)N2CCOCC2)cc(=O)n2cc(-c3ccc(Cl)cc3)nc12 [Compound 343]",
    "target entity": "Human autotaxin enzyme (Homo sapiens, UniProt Q13822)",
    "IC50": "10 to 100 nM"
  },
  {
    "compound": "CCCCCn1c(-c2ccc(C#N)nc2)cc(=O)n2cc(-c3ccc(Cl)cc3)nc12 [Compound 462]",
    "target entity": "Human autotaxin enzyme (Homo sapiens, UniProt Q13822)",
    "IC50": "10 to 100 nM"
  }
]

---

Target: Human autotaxin enzyme (Homo sapiens)
Construct: purchased R&D System
Assay: Evaluation of autotaxin inhibitor, Method B (Test Example 2): TG-mTMP fluorescence
Assay type: biochemical
Conditions: Assay Method B (Test Example 2), human autotaxin; read-out: Inhibitory Activity (autotaxin enzyme inhibitory activity, IC50 class)
Protocol: (Method B) Evaluation of Autotaxin Inhibitor Solution A containing 25 mM Tris-HCl buffer (pH7.5), 100 mM NaCl, 5 mM MgCl2 and 0.1% BSA was prepared. […] 5 μl of 150 mM EDTA in Solution A was added to quench the reaction, and the fluorescent dye TokyoGreen, which was produced by the reaction, was detected. The fluorescence was detected using ViewLux (PerkinElmer, Inc.) with an excitation wavelength of 480 nm and a fluorescence wavelength of 540 nm.
Listing of recorded IC50 by entry.
measured property: IC50

[
  {
    "molecule": "CCCCCn1c(-c2ccc(COC)cc2)cc(=O)n2cc(-c3ccc(Cl)cc3)nc12 [Compound 404]",
    "measured property": "IC50",
    "value": "< 10 nM"
  },
  {
    "molecule": "C#CCCCCCCCCCOc1cc(=O)n2cc(-c3ccc(Cl)cc3)nc2n1CCCCC [Compound 271]",
    "measured property": "IC50",
    "value": "> 1000 nM"
  },
  {
    "molecule": "CCCCCn1c(C)c(C#N)c(=O)n2cc(-c3ccc(Cl)cc3)nc12 [Compound 184]",
    "measured property": "IC50",
    "value": "> 1000 nM"
  },
  {
    "molecule": "Cc1cc(=O)n2cc(-c3ccc(Cl)cc3)nc2n1Cc1ccc(S(C)(=O)=O)cc1 [Compound 105]",
    "measured property": "IC50",
    "value": "10 to 100 nM"
  },
  {
    "molecule": "CCCCCn1c(C)cc(=O)n2cc(-c3cc4ccccc4s3)nc12 [Compound 142]",
    "measured property": "IC50",
    "value": "10 to 100 nM"
  },
  {
    "molecule": "CCCCCn1c(C)c(C#CCO)c(=O)n2cc(-c3ccc(Cl)cc3)nc12 [Compound 183]",
    "measured property": "IC50",
    "value": "10 to 100 nM"
  },
  {
    "molecule": "CCCCCn1c(-c2ccc(F)cc2)cc(=O)n2cc(-c3ccc(Cl)cc3)nc12 [Compound 368]",
    "measured property": "IC50",
    "value": "< 10 nM"
  },
  {
    "molecule": "CCCCCn1c(Cl)cc(=O)n2cc(-c3ccc(Cl)cc3)nc12 [Compound 176]",
    "measured property": "IC50",
    "value": "10 to 100 nM"
  },
  {
    "molecule": "CCCCCOC(=O)CCc1c(C)n(CCCCC)c2nc(-c3ccc(Cl)cc3)cn2c1=O [Compound 201]",
    "measured property": "IC50",
    "value": "< 10 nM"
  },
  {
    "molecule": "CCCCCn1c(N2CCC2)cc(=O)n2cc(-c3ccc(Cl)cc3)nc12 [Compound 196]",
    "measured property": "IC50",
    "value": "< 10 nM"
  },
  {
    "molecule": "Cc1cc(=O)n2cc(-c3ccc(Cl)cc3)nc2n1Cc1ccc(S(=O)(=O)C(F)F)cc1 [Compound 113]",
    "measured property": "IC50",
    "value": "10 to 100 nM"
  },
  {
    "molecule": "CCCCCn1c(NCCOC)cc(=O)n2cc(-c3ccc(Cl)cc3)nc12 [Compound 250]",
    "measured property": "IC50",
    "value": "10 to 100 nM"
  },
  {
    "molecule": "CCCCCOC(=O)Cc1c(C)n(CCCCC)c2nc(-c3ccc(Cl)cc3)cn2c1=O [Compound 215]",
    "measured property": "IC50",
    "value": "< 10 nM"
  },
  {
    "molecule": "N#CCCCCn1c(NCc2ccc(C(=O)O)cc2)cc(=O)n2cc(-c3ccc(Cl)cc3)nc12 [Compound 286]",
    "measured property": "IC50",
    "value": "< 10 nM"
  }
]
